System: LAMTOR1 (late endosomal/lysosomal adaptor, MAPK and MTOR activator 1) (Mus musculus, UniProt Q9CQ22)
Sequence (Q9CQ22 2-161): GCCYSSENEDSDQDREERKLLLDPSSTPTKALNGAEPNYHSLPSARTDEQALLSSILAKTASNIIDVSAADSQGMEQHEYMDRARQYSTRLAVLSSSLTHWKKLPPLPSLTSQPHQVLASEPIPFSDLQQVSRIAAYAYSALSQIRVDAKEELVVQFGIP
Method: dose-dependent DARTS western blot in 3T3-L1 lysate; CETSA and isothermal dose-response CETSA
Assay type: biochemical

- Compound: "COc1ccc(-c2cc(=O)c3c(O)cc(O)cc3o2)cc1 [ACA, 5,7-dihydroxy-4’methoxyflavone]"
  EC50: "~44 µM"
